- Test system: BE-M17 human neuroblastoma cells stably transfected with A53T-mutant human α-synuclein
- test_name: Thioflavin S staining of rotenone-induced α-synuclein aggregates in cells
- Format: cell-based
- settings: Homo sapiens, Neuroblastoma cell, read-out: Efficacy % Inhibition
quantity: inhibition at 1 µM (%)
Return type: number; implicit unit %.

// below: answered compounds
> print(dat)
                                   compound  value.unit  experimental.result
1  Oc1ccc(-c2cc(Br)c(-c3ccc(O)c(O)c3)s2)cc1O [SA-59]           %                   69
2  O=C(/C=C/c1ccc(O)c(O)c1)c1ccc(O)c(O)c1 [SA-94]           %                   63
3  O=C(/C=C/c1ccc(O)c(O)c1)c1cc(O)c(O)cc1Br [SA-96]           %                   82

Then this compound:
Problem: Fill blank: measured inhibition at 1 µM of the compound CC(=O)N1N=C(c2ccc(O)c(O)c2)CC1c1ccc(O)c(O)c1 (stereo not shown) [SA-98] is ____.
Solution: 76

* * *

- System: A53T α-synuclein-expressing BE-M17 cells
- test_name: XTT assay: rotenone-induced cell death
- Assay type: cell-based, human
- settings: Homo sapiens; read-out: Max % Inhibition
quantity: Emax
Value and unit, in that order.

> print(dat)
                                  structure                            assayed.target  quantity  experimental.result
1  O=C(/C=C/c1cc(O)c(O)cc1Br)c1ccc(O)c(O)c1  A53T α-synuclein-expressing BE-M17 cells      Emax                  63%
2     Oc1ccc(-c2nnc(-c3ccc(O)c(O)c3)o2)cc1O  A53T α-synuclein-expressing BE-M17 cells      Emax                  44%
3     Oc1ccc(-c2cnc(-c3ccc(O)c(O)c3)s2)cc1O  A53T α-synuclein-expressing BE-M17 cells      Emax                 100%
4     Oc1ccc(-c2cn(-c3ccc(O)c(O)c3)nn2)cc1O  A53T α-synuclein-expressing BE-M17 cells      Emax                  61%

Problem: Fill blank: measured Emax of the compound Oc1ccc(Cc2cc(O)c(O)cc2O)cc1O is ____.
Solution: 42%

Problem: Field entry: Oc1ccc(Cc2cc(O)c(O)cc2I)cc1O
Solution: 100%

* * *

Reported IC50 values are given for each entry in this list.
- assayed_target: human TauRD (Q244-E372 of Tau441) (Homo sapiens (Human))
- Sequence (P10636 561-689): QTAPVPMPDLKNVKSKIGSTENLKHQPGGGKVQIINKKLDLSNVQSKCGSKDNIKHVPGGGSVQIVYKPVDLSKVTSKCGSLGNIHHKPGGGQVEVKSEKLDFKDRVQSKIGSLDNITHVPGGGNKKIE
- test_name: Thioflavin S fluorometry: inhibition of tau protein fibril formation
- settings: TauRD and heparin 10 μM each, incubated for 22 hours; read-out: ThioS (IC50)
Return type: number; implicit unit µM.

> print(dat)
                                  structure                            assayed.target  value.unit  experimental.result
1  Oc1ccc(-c2ccc(-c3cc(O)c(O)c(O)c3)s2)cc1O  human TauRD (Q244-E372 of Tau441) (Homo sapiens (Human))          µM                 10.1

Then this compound:
Problem: Fill blank: measured IC50 of the compound Oc1ccc(-c2cnc(-c3ccc(O)c(O)c3)s2)cc1O is ____.
Solution: 17.6

* * *

Reported Emax values are given for each entry in this list.
- assayed_target: α-synuclein fibrils (Homo sapiens (Human))
- test_name: Thioflavin T fluorometry: disruption/disaggregation of pre-formed α-synuclein fibrils
- Assay type: biochemical
- settings: 48 h; Thioflavin T fluorescence, 2-day incubation; read-out: Max % Decrease
Return type: number; implicit unit %.

// below: answered compounds
> print(dat)
                                  structure                            assayed.target  experimental.result
1  O=C(/C=C/c1cc(O)c(O)cc1Br)c1ccc(O)c(O)c1  α-synuclein fibrils (Homo sapiens (Human))                  100
2     Oc1ccc(-c2nsc(-c3ccc(O)c(O)c3)n2)cc1O  α-synuclein fibrils (Homo sapiens (Human))                  100
3  O=[N+]([O-])c1cc(-c2ccc(O)c(O)c2)ccc1-c1ccc(O)c(O)c1  α-synuclein fibrils (Homo sapiens (Human))                  100
4              Oc1ccc(Cc2cc(O)c(O)cc2O)cc1O  α-synuclein fibrils (Homo sapiens (Human))                   99
5              Oc1ccc(Cc2cc(O)c(O)cc2I)cc1O  α-synuclein fibrils (Homo sapiens (Human))                  100
6     Oc1ccc(-c2cnc(-c3ccc(O)c(O)c3)s2)cc1O  α-synuclein fibrils (Homo sapiens (Human))                  100
7     Oc1ccc(-c2nnc(-c3ccc(O)c(O)c3)o2)cc1O  α-synuclein fibrils (Homo sapiens (Human))                   76

Then this compound:
Problem: Fill blank: measured Emax of the compound Oc1ccc(-c2nc3cc(O)c(O)cc3o2)cc1O is ____.
Solution: 98

* * *

- Test system: A53T α-synuclein-expressing BE-M17 cells
- test_name: XTT assay: rotenone-induced cell death
- Assay type: cell-based, human
- settings: Homo sapiens, read-out: Max % Inhibition
Answer Not fulfilled if Emax is under 60%, and Fulfilled if it is 60% or more.

Example cases with answers are listed next.
> print(dat)
                                   compound          label
1     Oc1ccc(-c2cnc(-c3ccc(O)c(O)c3)o2)cc1O      Fulfilled
2  Oc1ccc(-c2cc(Br)c(-c3ccc(O)c(O)c3)s2)cc1O      Fulfilled
3    O=C(/C=C/c1ccc(O)c(O)c1)c1ccc(O)c(O)c1  Not fulfilled
4  CC(=O)N1N=C(c2ccc(O)c(O)c2)CC1c1ccc(O)c(O)c1 (stereo not drawn)  Not fulfilled

Problem: Please indicate if the recorded Emax for COc1ccc(-c2cc(-c3ccc(OC)c(OC)c3)c(-c3ccc(OC)c(OC)c3)s2)cc1OC meets or exceeds 60%.
Solution: Not fulfilled

* * *

Reported Emax values are given for each entry in this list.
- assayed_target: α-synuclein fibrils (Homo sapiens (Human))
- test_name: biochemical
- settings: 48 h, read-out: Max % Decrease
Return type: number; implicit unit %.

// below: answered molecules
> print(dat)
                                   molecule  quantity  value.unit  experimental.result
1    O=C(/C=C/c1ccc(O)c(O)c1)c1ccc(O)c(O)c1      Emax           %                   65
2     Oc1ccc(-c2cnc(-c3ccc(O)c(O)c3)o2)cc1O      Emax           %                   88
3     Oc1ccc(-c2cnc(-c3ccc(O)c(O)c3)s2)cc1O      Emax           %                   85
4  O=C(/C=C/c1ccc(O)c(O)c1)c1cc(O)c(O)cc1Br      Emax           %                   72
5     Oc1ccc(-c2nsc(-c3ccc(O)c(O)c3)n2)cc1O      Emax           %                   66

Problem: // map Oc1ccc(-c2nc3cc(O)c(O)cc3o2)cc1O to recorded Emax (system: α-synuclein fibrils (Homo sapiens (Human)))
Solution: 57

Problem: Field entry: O=C(/C=C/c1cc(O)c(O)cc1Br)c1ccc(O)c(O)c1
Solution: 64

Problem: Field entry: CC(=O)N1N=C(c2ccc(O)c(O)c2)CC1c1ccc(O)c(O)c1 (stereo not drawn)
Solution: 44

* * *

- assayed_target: UniProtKB P37840
- test_name: Circular dichroism spectroscopy: inhibition of α-synuclein β-sheet formation
- Type: biochemical
- settings: inhibition of β-sheet formation, 24 hours; read-out: Max % Inhibition
Reported Emax values are given for each entry in this list.
Value and unit, in that order.

// below: answered compounds
> print(dat)
                                  structure    assayed.target  experimental.result
1  O=C(/C=C/c1cc(O)c(O)cc1Br)c1ccc(O)c(O)c1  UniProtKB P37840                  97%
2     Oc1ccc(-c2nsc(-c3ccc(O)c(O)c3)n2)cc1O  UniProtKB P37840                 100%
3  O=[N+]([O-])c1cc(-c2ccc(O)c(O)c2)ccc1-c1ccc(O)c(O)c1  UniProtKB P37840                  98%
4              Oc1ccc(Cc2cc(O)c(O)cc2I)cc1O  UniProtKB P37840                  91%
5     Oc1ccc(-c2cnc(-c3ccc(O)c(O)c3)s2)cc1O  UniProtKB P37840                 100%

Problem: Fill blank: measured Emax of the compound Oc1ccc(-c2nc3cc(O)c(O)cc3o2)cc1O is ____.
Solution: 100%

Problem: Field entry: Oc1ccc(Cc2cc(O)c(O)cc2O)cc1O
Solution: 100%

Problem: Field entry: Oc1ccc(-c2nnc(-c3ccc(O)c(O)c3)o2)cc1O
Solution: 100%
